- Tested on: MDA-MB-231
- TEST_DETAILS: Cell viability assay
- Format: cell-based, human
- TEST_CONDITIONS: MDA-MB-231, 72 h, average
OBSERVED_PROPERTY: IC50 (nM)
Give the quantity in nM, number only.

Please report the recorded IC50 for CC(O)[C@@]12SS[C@]3(C(=O)N1C)[C@@H](O)C1([C@@]45c6ccccc6N[C@@H]4N4C(=O)[C@]6(C(C)O)SS[C@]4(C(=O)N6C)[C@H]5O)c4ccccc4N[C@@H]1N3C2=O (stereo partly shown) [verticillin D] .
12.2

* * *

- Test system: OVCAR8 spheroids
- TEST_DETAILS: Spheroid viability assay
- Assay type: cell-based, human
- TEST_CONDITIONS: read-out: IC50, spheroid viability, 7 days
OBSERVED_PROPERTY: IC50 (µM)
Give the quantity in µM, number only.

Please report the recorded IC50 for CC(O)[C@@]12SS[C@]3(C(=O)N1C)[C@@H](O)C1([C@@]45c6ccccc6N[C@@H]4N4C(=O)[C@]6(C(C)O)SS[C@]4(C(=O)N6C)[C@H]5O)c4ccccc4N[C@@H]1N3C2=O (stereo partly shown) .
1.17

FYI, the data here is from paper PMC10405366.
